meta.source: the Immune Epitope Database (IEDB)

# Assay System: HLA-B*37:01
# Method Summary: IEDB peptide-MHC binding, purified MHC/competitive/fluorescence; bounds were set here for any values at or beyond the usual limits of such assays
# Particulars: source organism: Monodelphis domestica
pIC50: −log10 of the molar value.
Assay Metric: pIC50

Construct Sequence: LEYFQFVKKLL
Assay System: HLA-B*37:01
Assay Metric: pIC50
Measured Value: ≤ 4.70

====

# Assay System: HLA-A*02:19
# Method Summary: IEDB peptide-MHC binding, purified MHC/direct/fluorescence; filed as Kd, often an IC50 or EC50 that approximates it; bounds were set here for any values at or beyond the usual limits of such assays
# Particulars: source organism: Bacillus anthracis str. A0488

Construct Sequence: WDAYIPHYV
Assay System: HLA-A*02:19
Kd: ≥ 20 µM

====

# Assay System: HLA-A*68:02
# Method Summary: IEDB peptide-MHC binding, purified MHC/competitive/radioactivity; filed as Kd, often an IC50 or EC50 that approximates it; bounds were set here for any values at or beyond the usual limits of such assays
# Particulars: source organism: Dengue virus 4 Dominica/814669/1981
pKd: −log10 of the molar value.

Construct Sequence: MIRILIGFLV
pKd: 6.53

====

# Assay System: HLA-A*02:01
# Method Summary: IEDB peptide-MHC binding, purified MHC/direct/fluorescence; filed as Kd, often an IC50 or EC50 that approximates it; bounds were set here for any values at or beyond the usual limits of such assays
# Particulars: source organism: Pseudomonas aeruginosa
pKd: −log10 of the molar value.
Assay Metric: pKd

Construct Sequence: DLPPAIAAE
Measured Value: ≤ 4.70

====

# Assay System: HLA-A*03:01
# Method Summary: IEDB peptide-MHC binding, purified MHC/direct/fluorescence; filed as Kd, often an IC50 or EC50 that approximates it; bounds were set here for any values at or beyond the usual limits of such assays
# Particulars: source organism: Vibrio cholerae
pKd: −log10 of the molar value.
Assay Metric: pKd

Construct Sequence: GKFFAQAFL
Assay Metric: pKd
Value Relation Sign: ≤
Measured Value: 4.70
//
Construct Sequence: SVMPAWQEK
Assay Metric: pKd
Value Relation Sign: =
Measured Value: 7.13

====

# Assay System: HLA-A*03:01
# Method Summary: IEDB peptide-MHC binding, purified MHC/direct/fluorescence; filed as Kd, often an IC50 or EC50 that approximates it; bounds were set here for any values at or beyond the usual limits of such assays
# Particulars: source organism: Yersinia enterocolitica
pKd: −log10 of the molar value.

Construct Sequence: GYGRVNAGK
pKd: ≤ 4.70

====

# Assay System: HLA-A*11:01
# Method Summary: IEDB peptide-MHC binding, purified MHC/competitive/radioactivity; filed as Kd, often an IC50 or EC50 that approximates it; bounds were set here for any values at or beyond the usual limits of such assays
# Particulars: source organism: SARS coronavirus Tor2
Reported values of Kd for individual entries

Construct Sequence: TFFIFNKLVK
Assay System: HLA-A*11:01
Kd: 50.5 nM
//
Construct Sequence: ALALLLLDR
Assay System: HLA-A*11:01
Kd: 7530 nM
//
Construct Sequence: VFHLYLQYIR
Assay System: HLA-A*11:01
Kd: 1150 nM

====

# Assay System: HLA-B*35:01
# Method Summary: IEDB peptide-MHC binding, purified MHC/competitive/radioactivity; filed as Kd, often an IC50 or EC50 that approximates it; bounds were set here for any values at or beyond the usual limits of such assays
# Particulars: source organism: Mammarenavirus whitewaterense

Construct Sequence: NPTNISKCF
Kd: 0.199 µM

====

Quick reference for Kd among some sequences
# Assay System: HLA-B*54:01
# Method Summary: IEDB peptide-MHC binding, purified MHC/competitive/radioactivity; filed as Kd, often an IC50 or EC50 that approximates it; bounds were set here for any values at or beyond the usual limits of such assays
# Particulars: source organism: Mammarenavirus lassaense
Assay Metric: Kd (nM)

Construct Sequence: YPNSSDLDM
Value Relation Sign: ≥
Measured Value: 53900
//
Construct Sequence: FPAQPGLTSA
Value Relation Sign: =
Measured Value: 6.39

====

# Assay System: HLA-B*40:01
# Method Summary: IEDB peptide-MHC binding, purified MHC/direct/fluorescence; filed as Kd, often an IC50 or EC50 that approximates it; bounds were set here for any values at or beyond the usual limits of such assays
# Particulars: source organism: Mycobacterium tuberculosis variant bovis BCG str. Pasteur 1173P2
pKd: −log10 of the molar value.

Construct Sequence: IIRVTSELL
pKd: ≤ 4.70

====

# Assay System: HLA-B*51:01
# Method Summary: IEDB peptide-MHC binding, purified MHC/competitive/fluorescence; filed as Kd, often an IC50 or EC50 that approximates it; bounds were set here for any values at or beyond the usual limits of such assays
# Particulars: source organism: Burkholderia ambifaria AMMD

Construct Sequence: LPWSSPQLW
Assay System: HLA-B*51:01
Kd (nM): 90.6

====

# Assay System: HLA-B*44:02
# Method Summary: IEDB peptide-MHC binding, purified MHC/competitive/radioactivity; filed as Kd, often an IC50 or EC50 that approximates it; bounds were set here for any values at or beyond the usual limits of such assays
# Particulars: source organism: Mammarenavirus machupoense
pKd: −log10 of the molar value.
Assay Metric: pKd

Construct Sequence: ADMSKLLNL
Measured Value: 5.26

====

# Assay System: HLA-A*11:01
# Method Summary: IEDB peptide-MHC binding, purified MHC/competitive/radioactivity; filed as Kd, often an IC50 or EC50 that approximates it; bounds were set here for any values at or beyond the usual limits of such assays
# Particulars: source organism: Mammarenavirus choriomeningitidis
Assay Metric: Kd (nM)

Construct Sequence: SAFNKKHFDH
Measurement Units: nM
Measured Value: 1250

====

# Assay System: HLA-A*24:02
# Method Summary: IEDB peptide-MHC binding, purified MHC/competitive/fluorescence; filed as Kd, often an IC50 or EC50 that approximates it; bounds were set here for any values at or beyond the usual limits of such assays
# Particulars: source organism: Shigella flexneri 5 str. 8401

Construct Sequence: IIMRRFFYF
Kd: ≤ 0.1 nM

====

# Assay System: HLA-B*58:01
# Method Summary: IEDB peptide-MHC binding, purified MHC/direct/fluorescence; filed as Kd, often an IC50 or EC50 that approximates it; bounds were set here for any values at or beyond the usual limits of such assays
# Particulars: source organism: Vibrio parahaemolyticus
pKd: −log10 of the molar value.

Construct Sequence: IRSCWRYRK
pKd: ≤ 4.70

====

# Assay System: HLA-A*11:01
# Method Summary: IEDB peptide-MHC binding, purified MHC/competitive/fluorescence; bounds were set here for any values at or beyond the usual limits of such assays
# Particulars: source organism: Zaire ebolavirus
pIC50: −log10 of the molar value.
The sequences listed here are annotated with their pIC50.
Assay Metric: pIC50

Construct Sequence: ITDKIDQII
Assay Metric: pIC50
Value Relation Sign: =
Measured Value: 4.41

Construct Sequence: IALGVATAH
Assay Metric: pIC50
Value Relation Sign: =
Measured Value: 4.97

Construct Sequence: HGEYAPFAR
Assay Metric: pIC50
Value Relation Sign: =
Measured Value: 4.21

Construct Sequence: GEWAFWETK
Assay Metric: pIC50
Value Relation Sign: =
Measured Value: 4.24

Construct Sequence: VVAFLILPQ
Assay Metric: pIC50
Value Relation Sign: ≤
Measured Value: 2.91

Construct Sequence: TPVYKLDIS
Assay Metric: pIC50
Value Relation Sign: =
Measured Value: 4.18

Construct Sequence: HGFRFEVKK
Assay Metric: pIC50
Value Relation Sign: =
Measured Value: 7.06

====

# Assay System: HLA-C*08:02
# Method Summary: IEDB peptide-MHC binding, purified MHC/direct/fluorescence; filed as Kd, often an IC50 or EC50 that approximates it; bounds were set here for any values at or beyond the usual limits of such assays
# Particulars: source organism: Variola virus
pKd: −log10 of the molar value.

Construct Sequence: ILDDNLYKV
pKd: 6.42

====

# Assay System: HLA-A*02:11
# Method Summary: IEDB peptide-MHC binding, purified MHC/direct/fluorescence; filed as Kd, often an IC50 or EC50 that approximates it; bounds were set here for any values at or beyond the usual limits of such assays
# Particulars: source organism: Escherichia coli O157:H7 str. EC869

Construct Sequence: YGSWFGLIY
Kd: ≥ 20 µM

====

# Assay System: HLA-B*15:17
# Method Summary: IEDB peptide-MHC binding, purified MHC/direct/fluorescence; filed as Kd, often an IC50 or EC50 that approximates it; bounds were set here for any values at or beyond the usual limits of such assays
# Particulars: source organism: Influenza A virus (A/whooper swan/Mongolia/6/05(H5N1))
pKd: −log10 of the molar value.

Construct Sequence: SSDDFALIV
pKd: 6.64

====

# Assay System: HLA-B*48:01
# Method Summary: IEDB peptide-MHC binding, purified MHC/competitive/fluorescence; filed as Kd, often an IC50 or EC50 that approximates it; bounds were set here for any values at or beyond the usual limits of such assays
# Particulars: source organism: Entamoeba histolytica HM-1:IMSS

Construct Sequence: FQLYPPQIL
Measurement Units: nM
Kd: 77
